# Assay Summary: Cytotoxicity against HEK293T/17 cells by MTT assay
# Type: toxicity, cell-based
# Condition Set: human, HEK293T/17 cells
Exercise: state measured CC50 for each of the compounds provided.

compound_string=C[C@@H](OC(C)(C)C)[C@H](NC(=O)OCc1ccccc1)C(=O)N[C@@H](CC1CC1)C(=O)N[C@H](C=O)C[C@@H]1CCNC1=O data_value="> 200 µM"

Report CC50 for each item below.
1. C[C@@H](OC(C)(C)C)[C@H](NC(=O)OCc1ccccc1)C(=O)N[C@@H](CC(C)(C)C)C(=O)N[C@H](C=O)C[C@@H]1CCNC1=O
2. CC(C)(C)C[C@H](NC(=O)[C@@H](NC(=O)OCc1ccccc1)C(C)(C)C)C(=O)N[C@H](C=O)C[C@@H]1CCNC1=O

> 200 µM
> 200 µM
